- study target: Short transient receptor potential channel 4 (Mus musculus)
- test name: calcium flux activators in TRPC4/5HT1a cells, counter-screen for TRPC4 activator project, cell-based, second counter screen, HEK293 TRPC4/5HT1a, Fluo-4 (AID 434977)
- experimental parameters: Fluo-4 calcium flux, at 10 µM
Calls of active or inactive are those of the source.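 How the source made its calls: active means calcium signal rise above buffer-control mean plus 5 SD in both duplicates, and also a hit in the primary screen; inactive means the rest.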
Please state which outcome applies, choosing from true (1) = active, false (0) = inactive

Each compound tested received a call. Report the one for Cc1ccc(C)c(-n2cc(CNCCc3cnccn3)c(-c3ccccc3)n2)c1 . false (0)

Again, but for O=C(NCCc1ccccn1)c1ccc(OC2CCN(CCc3ccccc3)CC2)cc1 false (0)

Again, but for CCN1CCN(c2c(S(=O)(=O)c3ccc(C)c(C)c3)cnc3ccc(F)cc23)CC1 false (0)

Again, but for COc1cc(C(=O)NC(=S)NNC(=O)[C@H]2C[C@@H]2c2ccccc2)cc(OC)c1OC true (1)

Again, but for CN(C)C(CNC(=S)Nc1ccccc1)c1cccnc1 (configuration not stated) false (0)

Again, but for CN(C)CCN(C(=O)c1cccc2ccccc12)c1nc2cc3c(cc2s1)OCO3 false (0)

Again, but for CCc1ccc(C(CNc2nc(C(F)(F)F)nc3ccccc23)N(C)C)cc1 (configuration not stated) false (0)

Again, but for Cn1c(-c2cccc3ccccc23)n[nH]c1=S true (1)

Again, but for CNCCCOc1ccc2c(c1)CCC2 true (1)

Again, but for CCOC(=O)C1(CCOc2ccccc2)CCN(Cc2ccc(OC)c(O)c2)CC1 false (0)

Again, but for CC(C)(C)c1ccc(C(=O)NC(=S)NNC(=O)COc2ccccc2)cc1 true (1)

Again, but for Cc1sc2ncnc(NCC(C)(C)N3CCOCC3)c2c1C true (1)

Again, but for COc1ccc(C(=O)NC(=S)NNC(=O)c2c(-c3ccccc3)noc2C)cc1OC true (1)

Again, but for Cc1ccc(C)c(S(=O)(=O)N2CCN(C(=O)CCc3nc4ccccc4c(=O)[nH]3)CC2)c1 true (1)

Again, but for COc1ccc(/C=C/C(=O)Nc2ccccc2C(=O)NCC(c2ccc(OC)cc2)N(C)C)cc1 (configuration not stated) false (0)

Again, but for CC1CCCN(CCCNC(=O)c2ccc3c(c2)N(Cc2ccccc2F)C(=O)c2ccccc2S3(=O)=O)C1 (configuration not stated) true (1)

Again, but for CC(=O)Nc1ccc(C2(c3ccc(NC(C)=O)cc3)C(=O)Nc3ccccc32)cc1 false (0)

Again, but for O=C(c1sc2ccccc2c1Cl)N(Cc1cccs1)C1CCS(=O)(=O)C1 (configuration not stated) true (1)

Again, but for CN(C)C(CNC(=O)c1cc2ccccc2oc1=O)c1ccccc1 (configuration not stated) false (0)

Again, but for Cc1onc(-c2ccccc2)c1C(=O)NNC(=S)NC(=O)/C=C/c1ccccc1 true (1)

Again, but for CC(C)c1ccc(NC(=S)N(C)CCc2ccccn2)cc1 true (1)

Again, but for O=c1c2c(-c3ccccc3)csc2ncn1/N=C/c1cccc([N+](=O)[O-])c1O true (1)

Again, but for CC1CC(C)CN(CCCNC(=O)c2nn(C)c3c2CS(=O)(=O)c2ccccc2-3)C1 (configuration not stated) true (1)

Again, but for Cc1ccc(C)c(OCCCCn2ccnc2)c1 true (1)

Again, but for CCOC(=O)C1(CCOc2ccccc2)CCN(Cc2cnc(C)s2)CC1 true (1)

Again, but for Cc1cccc(NC(=S)NCC(c2cccnc2)N(C)C)c1C (configuration not stated) false (0)

Again, but for CCCCC(c1nnnn1CC1CCCO1)N1CCN(c2nc3ccccc3s2)CC1 (configuration not stated) true (1)

Again, but for Cc1csc2c(N3CCN(C(=S)Nc4ccc(F)cc4F)CC3)ncnc12 true (1)

Again, but for COc1cc(OC)cc(C(=O)NC(=S)NNC(=O)[C@H]2C[C@@H]2c2ccccc2)c1 true (1)

Again, but for CSCCC(NS(=O)(=O)c1ccc2c(c1)c(=O)n(C)c(=O)n2C)C(=O)NC1CCN(Cc2ccccc2)CC1 (configuration not stated) true (1)

Again, but for CCCOc1ccc(C(=O)NC(=S)NNC(=O)c2c(-c3ccccc3)noc2C)cc1 true (1)

Again, but for Cc1ccc(COn2c(-c3ccc(Cl)cc3Cl)nc3ncccc32)cc1 false (0)

Again, but for CCCCN(C)CCCNC(=O)CN1N=C(c2ccc(Cl)cc2)CCC1=O true (1)

Again, but for O=S(=O)(c1ccccc1)c1nnn2c1nc(NC1CCN(Cc3ccccc3)CC1)c1cc(Cl)ccc12 false (0)

Again, but for COC(=O)[C@@]1(Cc2ccc(F)cc2)[C@H]2c3cc(C(=O)N(C)C)n(CCc4ccccn4)c3C[C@H]2CN1C(=O)c1ccccc1 false (0)

Again, but for CN(C)C(CNC(=O)c1ccc(C(F)(F)F)cc1)c1ccco1 (configuration not stated) false (0)

Again, but for O=C(COc1ccc(Br)cc1CNC1CCCC1)Nc1ccccc1 false (0)

Again, but for Cc1cc(-c2nn(-c3ccccc3F)cc2CNCCc2cnc[nH]2)c(C)s1 true (1)

Again, but for CC1CN(C(=O)c2ccc(NS(=O)(=O)c3ccc(C(C)(C)C)cc3)cc2)CC(C)O1 (configuration not stated) true (1)

Again, but for COc1ccc(C(CNC(=O)c2cc(SC)ccc2Cl)N(C)C)cc1 (configuration not stated) false (0)

Again, but for COC(=O)C1=C(C)N(Cc2ccccc2)C(=NCCc2ccccn2)N[C@H]1c1cccc(F)c1 true (1)

Again, but for Cc1cc(NC(=O)c2cnn3cccnc23)nn1CC(=O)Nc1cccnc1 false (0)

Data credit: PubChem BioAssay
